assay: Concentration in brain tissue was measured at 2 hrs in mice following po administration of 32 mg/kg; assay type: ADME, organism-based; design: dose 32 mg/kg, route oral; settings: mouse
MEASURED_ATTRIBUTE: log10(concentration at 2 h) (log10 of the value in ng/g)

compound_structure_string=O=c1[nH]c(CCCN2CC=C(c3ccc(C(F)(F)F)cc3)CC2)nc2ccccc12 value_observed=4.29
compound_structure_string=O=c1[nH]c(CCCN2CC=C(c3ccccc3)CC2)nc2c(Cl)cccc12 value_observed=3.93
compound_structure_string=Oc1nc(CCCN2CC=C(c3ccc(-[n+]4ccccc4)cc3)CC2)nc2ccccc12 value_observed=2.48
compound_structure_string=COc1ccc(C2=CCN(CCCc3nc(O)c4ccccc4n3)CC2)cc1 value_observed=3.57
compound_structure_string=Oc1nc(CCCN2CCc3c([nH]c4ccccc34)C2)nc2ccccc12 value_observed=2.18
compound_structure_string=Oc1nc(CCCN2CC=C(c3ccccc3)CC2)nc2cccc(F)c12 value_observed=2.34
compound_structure_string=Oc1nc(CCCN2CCN(c3ccccc3)CC2)nc2ccccc12 value_observed=2.48

* * *

experiment: Clearance of compound in dog after iv administration of 1.0 mg/kg; assay type: ADME, organism-based, Canis lupus familiaris; set-up: dose 1 mg/kg, route intravenous; details: in vivo
MEASURED_ATTRIBUTE: clearance (mL/min/kg)

compound_structure_string=O=c1[nH]c(CCCN2CC=C(c3ccc(F)cc3)CC2)nc2c(Cl)cccc12 value_observed=4.8

* * *

experiment: Clearance in rat liver microsomes when incubated at 37 degree Celsius in the presence of NADPH-generating system
MEASURED_ATTRIBUTE: CLint scaled (mL/min/kg)

compound_structure_string=O=c1[nH]c(CCCN2CC=C(c3ccc(F)cc3)CC2)nc2c(Cl)cccc12 value_observed=1240

* * *

assay: Bioavailability in dog after iv administration of 1.0 mg/kg; type: ADME, organism-based, Canis lupus familiaris; details: in vivo, read-out: Bioavailabiility
MEASURED_ATTRIBUTE: bioavailability

compound_structure_string=O=c1[nH]c(CCCN2CC=C(c3ccc(F)cc3)CC2)nc2c(Cl)cccc12 value_observed=70%

* * *

test: Concentration in plasma was measured at 2 hrs in mice following po administration of 32 mg/kg; format: ADME, organism-based; design: dose 32 mg/kg, route oral; details: mouse
The label is true (1) for concentration at 2 h below 1000 ng/mL and false (0) for concentration at 2 h equal to or exceeding 1000 ng/mL.

compound_structure_string=Oc1nc(CCCN2CCc3c([nH]c4ccccc34)C2)nc2ccccc12 assigned_label="false (0)"
compound_structure_string=O=c1[nH]c(CCCN2CC=C(c3ccccc3)CC2)nc2c(Cl)cccc12 assigned_label="false (0)"
compound_structure_string=Oc1nc(CCCN2CC=C(c3ccc(-[n+]4ccccc4)cc3)CC2)nc2ccccc12 assigned_label="true (1)"
compound_structure_string=O=c1[nH]c(CCCN2CC=C(c3ccc(Cl)cc3)CC2)nc2ccccc12 assigned_label="false (0)"
compound_structure_string=O=c1[nH]c(CCCN2CC=C(c3ccc(F)cc3)CC2)nc2ccccc12 assigned_label="false (0)"
compound_structure_string=O=c1[nH]c(CCCN2CC=C(c3ccccc3)CC2)nc2ccccc12 assigned_label="true (1)"
